# experimental-system: KLHDC2^SBD (Homo sapiens, UniProt Q9Y2U9)
# assay-notes: ITC, binary binding of small molecule to KLHDC2^SBD
# condition-description: ITC Kd, as printed in Fig 2d/3b

- test-smiles: "COCCOc1cccc2ccc(-c3nc(CC(=O)NCC(=O)O)cs3)cc12"
  Kd: "0.21 µM"

* * *

# experimental-system: BRD3^BD2 (Homo sapiens)
# Sequence (Q15059 306-416): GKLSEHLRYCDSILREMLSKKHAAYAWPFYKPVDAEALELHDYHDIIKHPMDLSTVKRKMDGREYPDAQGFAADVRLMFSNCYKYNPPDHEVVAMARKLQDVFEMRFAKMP
# assay-notes: ITC, binary binding to BRD3^BD2
# condition-description: ITC Kd, cell: SJ46421; syringe: BRD3^BD2
pKd: −log10 of the molar value.

- molecule: "Cc1sc2c(c1C)C(c1ccc(Cl)cc1)=N[C@@H](CC(=O)N1CCN(CCOc3cccc4ccc(-c5nc(CC(=O)NCC(=O)O)cs5)cc34)CC1)c1nnc(C)n1-2 [SJ46421]"
  pKd: 6.00

* * *

# experimental-system: H346A/R347A KLHDC2^SBD / BRD3^BD2 (Homo sapiens, UniProt Q15059+Q9Y2U9, H346A/R347A)
# assay-notes: ITC, ternary complex H346A/R347A KLHDC2^SBD with PROTAC-BRD3^BD2
pKd: −log10 of the molar value.
metric-name: pKd

- test-smiles: "Cc1sc2c(c1C)C(c1ccc(Cl)cc1)=N[C@@H](CC(=O)N1CCN(CCOc3cccc4ccc(-c5nc(CC(=O)NCC(=O)O)cs5)cc34)CC1)c1nnc(C)n1-2"
  experimental-system: "H346A/R347A KLHDC2^SBD / BRD3^BD2 (Homo sapiens, UniProt Q15059+Q9Y2U9, H346A/R347A)"
  metric-name: "pKd"
  assay-value: 7.29

* * *

# experimental-system: UniProt Q9Y2U9
# Sequence (Q9Y2U9 15-361): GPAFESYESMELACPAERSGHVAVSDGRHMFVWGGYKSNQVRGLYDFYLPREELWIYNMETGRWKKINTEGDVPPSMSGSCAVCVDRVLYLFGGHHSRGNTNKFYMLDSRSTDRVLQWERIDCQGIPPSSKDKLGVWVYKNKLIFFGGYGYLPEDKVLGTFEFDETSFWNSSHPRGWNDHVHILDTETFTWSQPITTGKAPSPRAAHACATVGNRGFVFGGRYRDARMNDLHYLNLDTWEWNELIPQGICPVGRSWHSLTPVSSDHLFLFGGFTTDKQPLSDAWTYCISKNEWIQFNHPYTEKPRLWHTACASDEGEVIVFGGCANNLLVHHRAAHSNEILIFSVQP
# assay-notes: Surface plasmon resonance binding to KLHDC2
# Design: KLHDC2^SBD (15-361) and its Avi-tagged counterpart were expressed in E. coli Rosetta2 cells; 6XHis-MBP (N, cleaved yes); made in house; host or cells: E. coli Rosetta2
# condition-description: n=1
metric-name: SPR Rmax

- compound: "O=C(O)CNC(=O)Cc1csc(-c2ccccc2F)n1 [SJ6145]"
  metric-name: "SPR Rmax"
  assay-value: "8.25 +/- 0.01"
- compound: "O=C(O)CNC(=O)Cc1csc(-c2ccc3ccccc3c2)n1 [SJ46411]"
  metric-name: "SPR Rmax"
  assay-value: "24.50 +/- 0.30"
- compound: "COCOc1ccc(-c2nc(CC(=O)NCC(=O)O)cs2)c(Cl)c1 [SJ10278]"
  metric-name: "SPR Rmax"
  assay-value: "11.33 +/- 0.02"
- compound: "COCCOc1cccc2ccc(-c3nc(CC(=O)NCC(=O)O)cs3)cc12 [SJ46418]"
  metric-name: "SPR Rmax"
  assay-value: "5.70 +/- 0.20"

* * *

# experimental-system: KLHDC2^SBD (Homo sapiens)
# assay-notes: Thermal shift assay (Sypro Orange) probing stabilization of KLHDC2^SBD
# Format: binding
# Design: KLHDC2^SBD (15-361) and its Avi-tagged counterpart were expressed in E. coli Rosetta2 cells; 6XHis-MBP (N, cleaved yes); made in house; host or cells: E. coli Rosetta2
# condition-description: KLHDC2^SBD; ligand concentration not given
Met means recorded Thermal shift ΔTm is 4 °C or above; Not met means it is below 4 °C.

- test-smiles: "O=C(O)CNC(=O)Cc1csc(-c2ccc3ccccc3c2F)n1"
  experimental-system: "KLHDC2^SBD (Homo sapiens)"
  class: "Met"
- test-smiles: "O=C(O)CNC(=O)Cc1csc(-c2ccc3c(c2)NCCO3)n1"
  experimental-system: "KLHDC2^SBD (Homo sapiens)"
  class: "Not met"
- test-smiles: "O=C(O)CNC(=O)Cc1csc(-c2cccc3ccncc23)n1"
  experimental-system: "KLHDC2^SBD (Homo sapiens)"
  class: "Not met"
- test-smiles: "COCCOc1cccc2ccc(-c3nc(CC(=O)NCC(=O)O)cs3)cc12"
  experimental-system: "KLHDC2^SBD (Homo sapiens)"
  class: "Met"

* * *

# experimental-system: R112A KLHDC2^SBD / BRD3^BD2 (Homo sapiens, UniProt Q15059+Q9Y2U9, R112A)
# assay-notes: ITC, ternary complex R112A KLHDC2^SBD with PROTAC-BRD3^BD2
metric-name: Kd (nM)

- compound: "Cc1sc2c(c1C)C(c1ccc(Cl)cc1)=N[C@@H](CC(=O)N1CCN(CCOc3cccc4ccc(-c5nc(CC(=O)NCC(=O)O)cs5)cc34)CC1)c1nnc(C)n1-2 [SJ46421]"
  assay-value: 39.7

* * *

# Test system: SKBR3, AU565, RD, SKES1, A673 cells
# assay-notes: Cell Titer-Glo Luminescent Cell Viability assay
# condition-description: 24 h, read-out: IC50, cell viability

- molecule: "COC(=O)CNC(=O)Cc1csc(-c2ccc3cccc(OCCN4CCN(C(=O)C[C@@H]5N=C(c6ccc(Cl)cc6)c6c(sc(C)c6C)-n6c(C)nnc65)CC4)c3c2)n1 [SJ46420]"
  IC50: "~300 nM"

* * *

# experimental-system: KLHDC2^SBD (Homo sapiens)
# assay-notes: TR-FRET assay, competition with di-Gly degron peptide binding to KLHDC2^SBD
# Parameters: KLHDC2^SBD (15-361) and its Avi-tagged counterpart were expressed in E. coli Rosetta2 cells; 6XHis-MBP (N, cleaved yes); made in house; host or cells: E. coli Rosetta2
# condition-description: inhibition of KLHDC2^SBD binding to a di-Gly degron peptide; read-out: TR-FRET IC50
Known IC50 of a selection of compounds

- compound: "O=C(O)CNC(=O)Cc1csc(-c2cccc3cccnc23)n1 [SJ46414]"
  IC50 / µM: 7.1
- compound: "COCOc1ccc(-c2nc(CC(=O)NCC(=O)O)cs2)c(Cl)c1 [SJ10278]"
  IC50 / µM: 24.1
- compound: "O=C(O)CNC(=O)Cc1csc(-c2cccc(Cl)c2)n1 [SJ10267]"
  IC50 / µM: 46.7
- compound: "O=C(O)CNC(=O)Cc1csc(-c2ccc3c(c2)NCCO3)n1 [SJ49356]"
  IC50 / µM: 8.2
- compound: "COCOc1ccc(-c2nc(CC(=O)NCC(=O)O)cs2)cc1F [SJ45737]"
  IC50 / µM: 72.8
- compound: "O=C(O)CNC(=O)Cc1csc(-c2ccc3ccccc3c2)n1 [SJ46411]"
  IC50 / µM: 3.9
- compound: "COCCOc1cccc2ccc(-c3nc(CC(=O)NCC(=O)O)cs3)cc12 [SJ46418]"
  IC50 / µM: 1.1
- compound: "COc1ccc2cc(-c3nc(CC(=O)NCC(=O)O)cs3)ccc2c1 [SJ46413]"
  IC50 / µM: 10.3
- compound: "O=C(O)CNC(=O)Cc1csc(-c2cccc3ccccc23)n1 [SJ46415]"
  IC50 / µM: 9.8
- compound: "COc1ccc(-c2nc(CC(=O)NCC(=O)O)cs2)c(Cl)c1 [SJ10272]"
  IC50 / µM: 30.2
- compound: "O=C(O)CNC(=O)Cc1csc(-c2ccccc2F)n1 [SJ6145]"
  IC50 / µM: 42
- compound: "O=C(O)CNC(=O)Cc1csc(-c2cccc3ccncc23)n1 [SJ46412]"
  IC50 / µM: 20.3
- compound: "O=C(O)CNC(=O)Cc1csc(-c2ccc3ccccc3c2F)n1 [SJ46416]"
  IC50 / µM: 1.8
- compound: "O=C(O)CNC(=O)Cc1csc(-c2ccc(O)cc2Cl)n1 [SJ10280]"
  IC50 / µM: 40.6
- compound: "COc1ccc2ccc(-c3nc(CC(=O)NCC(=O)O)cs3)cc2c1 [SJ46417]"
  IC50 / µM: 1.7

* * *

Each entry below carries its recorded ΔTm at 50 µM.
# experimental-system: KLHDC2^SBD (Homo sapiens)
# assay-notes: Thermal shift assay (Sypro Orange) probing stabilization of KLHDC2^SBD
# Assay type: binding
# Design: KLHDC2^SBD (15-361) and its Avi-tagged counterpart were expressed in E. coli Rosetta2 cells; 6XHis-MBP (N, cleaved yes); made in house; host or cells: E. coli Rosetta2
# condition-description: read-out: ΔTm at 50 µM
metric-name: ΔTm at 50 µM (°C)

- molecule: "COc1ccc(-c2nc(CC(=O)NCC(=O)O)cs2)c(Cl)c1 [SJ10272]"
  metric-name: "ΔTm at 50 µM"
  output-unit: "°C"
  assay-value: 3.3
- molecule: "O=C(O)CNC(=O)Cc1csc(-c2ccc(O)cc2Cl)n1 [SJ10280]"
  metric-name: "ΔTm at 50 µM"
  output-unit: "°C"
  assay-value: 2.5
- molecule: "COCOc1ccc(-c2nc(CC(=O)NCC(=O)O)cs2)cc1F [SJ45737]"
  metric-name: "ΔTm at 50 µM"
  output-unit: "°C"
  assay-value: 2.8
- molecule: "O=C(O)CNC(=O)Cc1csc(-c2ccccc2F)n1 [SJ6145]"
  metric-name: "ΔTm at 50 µM"
  output-unit: "°C"
  assay-value: 1.1
- molecule: "O=C(O)CNC(=O)Cc1csc(-c2cccc(Cl)c2)n1 [SJ10267]"
  metric-name: "ΔTm at 50 µM"
  output-unit: "°C"
  assay-value: 2.3
- molecule: "COCOc1ccc(-c2nc(CC(=O)NCC(=O)O)cs2)c(Cl)c1 [SJ10278]"
  metric-name: "ΔTm at 50 µM"
  output-unit: "°C"
  assay-value: 3.5

Where do the numbers come from? From paper PMC11470957.
